Quick record of AC50 values for Equilibrative nucleoside transporter 1 (Homo sapiens).

Completed entries (count: 10):
MOLECULE: CNC(=O)c1ccccc1Sc1ccc2c(/C=C/c3ccccn3)n[nH]c2c1
AC50: > 30 µM

MOLECULE: CC(CC(c1ccccc1)c1ccccc1)NC(C)(C)C (stereo unspecified)
AC50: > 30 µM

MOLECULE: C=CCN1C[C@H](C(=O)N(CCCN(C)C)C(=O)NCC)C[C@@H]2c3cccc4[nH]cc(c34)C[C@H]21
AC50: > 30 µM

MOLECULE: NC(=O)CN1CC(O)CC1=O (stereo unspecified)
AC50: > 30 µM

MOLECULE: O=[N+]([O-])c1cn2c(n1)OC[C@@H](OCc1ccc(OC(F)(F)F)cc1)C2
AC50: > 30 µM

MOLECULE: CCC1(CC)C(=O)NCC(C)C1=O (stereo unspecified)
AC50: > 30 µM

MOLECULE: CC(C)(C)NCC(O)COc1cccc2c1CCC(=O)N2 (stereo unspecified)
AC50: > 10 µM

MOLECULE: Clc1ccc2nsnc2c1NC1=NCCN1
AC50: > 30 µM

MOLECULE: CN(C)CCC=C1c2ccccc2C(C)(C)c2ccccc21
AC50: > 30 µM

MOLECULE: CN1CCC(=C2c3ccccc3CCc3sccc32)CC1
AC50: > 30 µM

Please give AC50, item by item, for the list that follows.
1. CN1C(=O)OC(C)(C)C1=O
2. CNC(C)CCC=C(C)C (stereo unspecified)
3. O=C(OCC(O)CO)c1ccccc1Nc1ccnc2cc(Cl)ccc12 (stereo unspecified)
4. Cc1cn([C@H]2C=C[C@@H](CO)O2)c(=O)[nH]c1=O
5. COC(=O)C1=C(C)NC(C)=C(C(=O)OC2CCCN(Cc3ccccc3)C2)C1c1cccc([N+](=O)[O-])c1 (stereo unspecified)
6. O=C(NCCNCC(O)COc1ccc(O)cc1)N1CCOCC1 (stereo unspecified)
7. C/C(O)=C(\C#N)C(=O)Nc1ccc(C(F)(F)F)cc1 [TERIFLUNOMIDE]
8. N[C@@H]1[C@H]2CN(c3nc4c(cc3F)c(=O)c(C(=O)O)cn4-c3ccc(F)cc3F)C[C@@H]12

1: > 10 µM; 2: > 30 µM; 3: 8.1 µM; 4: > 30 µM; 5: 8.2 µM; 6: > 30 µM; 7: > 30 µM; 8: > 30 µM

----------
Target: 5-hydroxytryptamine receptor 1A (Homo sapiens); note: assay procedure not described here
Sequence (P08908 whole entry): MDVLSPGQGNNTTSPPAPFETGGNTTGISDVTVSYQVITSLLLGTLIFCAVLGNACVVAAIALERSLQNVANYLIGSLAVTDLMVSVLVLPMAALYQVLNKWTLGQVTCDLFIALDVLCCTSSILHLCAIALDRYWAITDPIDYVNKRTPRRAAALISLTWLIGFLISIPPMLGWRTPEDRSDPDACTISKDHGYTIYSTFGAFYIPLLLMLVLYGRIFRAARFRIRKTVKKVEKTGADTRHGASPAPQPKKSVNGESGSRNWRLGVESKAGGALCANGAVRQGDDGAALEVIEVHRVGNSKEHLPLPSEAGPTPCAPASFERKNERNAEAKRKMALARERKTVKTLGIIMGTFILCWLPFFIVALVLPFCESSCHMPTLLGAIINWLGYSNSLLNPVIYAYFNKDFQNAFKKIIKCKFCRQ
Type: functional, cell-based
MEASUREMENT LABEL: AC50

Below, each entry is followed by its recorded AC50 result.
MOLECULE: C[C@@H]1O[C@@H](O[C@@H]2C=C3CC[C@@H]4[C@H](CC[C@]5(C)[C@@H](c6ccc(=O)oc6)CC[C@]45O)[C@@]3(C)CC2)[C@H](O)[C@H](O)[C@H]1O
MEASUREMENT LABEL: AC50
OBSERVED VALUE: > 30 µM
--
MOLECULE: COc1ccc(CC(C)(C)NC[C@H](O)c2cc(O)cc3c2OCC(=O)N3)cc1
MEASUREMENT LABEL: AC50
OBSERVED VALUE: > 30 µM
--
MOLECULE: O=C(Cc1ccc(-c2ccccc2)cc1)Nc1ccccn1 [DIFENPIRAMIDE]
MEASUREMENT LABEL: AC50
OBSERVED VALUE: > 30 µM

State the recorded AC50 for every item in the following list.
1. COc1ccc(CCN(C)CCCC(C#N)(c2cc(OC)c(OC)c(OC)c2)C(C)C)cc1OC (stereo unspecified)
2. C/C(O)=C(\C#N)C(=O)Nc1ccc(C(F)(F)F)cc1 [TERIFLUNOMIDE]
3. COc1cc2nc(N(C)CCCNC(=O)C3CCCO3)nc(N)c2cc1OC (stereo unspecified)
4. CC[C@H]1OC(=O)[C@H](C)[C@@H](O[C@H]2C[C@@](C)(OC)[C@@H](O)[C@H](C)O2)[C@H](C)[C@@H](O[C@@H]2O[C@H](C)C[C@H](N(C)C)[C@H]2O)[C@](C)(O)C[C@@H](C)CN(C)[C@H](C)[C@@H](O)[C@]1(C)O
5. CO[C@H]1C[C@@H]2CC[C@@H](C)[C@@](O)(O2)C(=O)C(=O)N2CCCC[C@H]2C(=O)O[C@H]([C@H](C)C[C@@H]2CC[C@@H](O)[C@H](OC)C2)CC(=O)[C@H](C)/C=C(\C)[C@@H](O)[C@@H](OC)C(=O)[C@H](C)C[C@H](C)/C=C/C=C/C=C/1C

1: > 30 µM; 2: > 30 µM; 3: > 30 µM; 4: > 10 µM; 5: > 10 µM

----------
I'd be grateful if you could share measured AC50 for these entries.
Target: Beta-2 adrenergic receptor (Homo sapiens); note: assay procedure not described here
Sequence (P07550 whole entry): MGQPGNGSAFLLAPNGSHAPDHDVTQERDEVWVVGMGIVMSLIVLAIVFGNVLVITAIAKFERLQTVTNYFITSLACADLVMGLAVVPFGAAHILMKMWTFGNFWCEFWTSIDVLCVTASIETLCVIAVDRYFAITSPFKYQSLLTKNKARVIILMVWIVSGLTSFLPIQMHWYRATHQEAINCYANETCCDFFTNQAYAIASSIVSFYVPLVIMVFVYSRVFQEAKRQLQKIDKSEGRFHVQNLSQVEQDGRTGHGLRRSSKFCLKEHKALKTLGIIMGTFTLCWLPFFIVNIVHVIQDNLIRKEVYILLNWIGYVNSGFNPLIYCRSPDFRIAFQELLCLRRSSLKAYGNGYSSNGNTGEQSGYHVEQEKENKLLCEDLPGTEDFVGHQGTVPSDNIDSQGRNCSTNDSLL

Example results:
COMPOUND: CC(Oc1c(Cl)cccc1Cl)C1=NCCN1 (centres undefined) [LOFEXIDINE]
AC50: > 30 µM
--
COMPOUND: CNC(=O)c1ccccc1Sc1ccc2c(/C=C/c3ccccn3)n[nH]c2c1 [AXITINIB]
AC50: > 10 µM

Hey, quick one: what's AC50 for each of these?
1. O=C(O)C[C@H](O)C[C@H](O)/C=C/c1c(C2CC2)nc2ccccc2c1-c1ccc(F)cc1 [PITAVASTATIN]
2. CCCc1nc(C(C)(C)O)c(C(=O)OCc2oc(=O)oc2C)n1Cc1ccc(-c2ccccc2-c2nnn[nH]2)cc1 [OLMESARTAN MEDOXOMIL]

> 10 µM
> 10 µM

----------
Answer each item with its documented AC50.
Target: Alpha-2A adrenergic receptor (Homo sapiens, UniProt P08913); note: assay procedure not described here
Sequence (P08913 whole entry): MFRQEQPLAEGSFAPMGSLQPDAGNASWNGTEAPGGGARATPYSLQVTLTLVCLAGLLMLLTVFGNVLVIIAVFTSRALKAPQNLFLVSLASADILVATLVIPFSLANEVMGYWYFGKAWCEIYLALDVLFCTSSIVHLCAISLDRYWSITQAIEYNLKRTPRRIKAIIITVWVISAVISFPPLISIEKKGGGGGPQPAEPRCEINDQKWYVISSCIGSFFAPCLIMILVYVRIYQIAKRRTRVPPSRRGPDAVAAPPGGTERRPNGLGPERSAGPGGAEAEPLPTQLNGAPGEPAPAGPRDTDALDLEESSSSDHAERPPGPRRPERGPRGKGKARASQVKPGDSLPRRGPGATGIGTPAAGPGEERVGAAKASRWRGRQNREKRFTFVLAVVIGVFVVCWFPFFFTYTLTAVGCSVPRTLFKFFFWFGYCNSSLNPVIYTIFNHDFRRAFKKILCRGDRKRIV
Type: functional, cell-based

These solved cases illustrate the format of a correct answer.
COMPOUND: CCCC(C)C1(CC)C(=O)NC(=O)NC1=O (centres undefined)
TESTED SYSTEM: Alpha-2A adrenergic receptor (Homo sapiens, UniProt P08913); note: assay procedure not described here
OBSERVED VALUE: > 10 µM
--
COMPOUND: CCCC1O[C@@H]2C[C@H]3[C@@H]4CCC5=CC(=O)C=C[C@]5(C)[C@H]4[C@@H](O)C[C@]3(C)[C@]2(C(=O)CO)O1 (some centres undefined) [BUDESONIDE]
TESTED SYSTEM: Alpha-2A adrenergic receptor (Homo sapiens, UniProt P08913); note: assay procedure not described here
OBSERVED VALUE: > 10 µM
--
COMPOUND: CC[C@H]1OC(=O)[C@H](C)[C@@H](O[C@H]2C[C@@](C)(OC)[C@@H](O)[C@H](C)O2)[C@H](C)[C@@H](O[C@@H]2O[C@H](C)C[C@H](N(C)C)[C@H]2O)[C@](C)(O)C[C@@H](C)CN(C)[C@H](C)[C@@H](O)[C@]1(C)O
TESTED SYSTEM: Alpha-2A adrenergic receptor (Homo sapiens, UniProt P08913); note: assay procedure not described here
OBSERVED VALUE: > 10 µM
--
COMPOUND: COc1ccccc1OCC(O)CN1CCN(CC(=O)Nc2c(C)cccc2C)CC1 (centres undefined)
TESTED SYSTEM: Alpha-2A adrenergic receptor (Homo sapiens, UniProt P08913); note: assay procedure not described here
OBSERVED VALUE: 7.7 µM
--
COMPOUND: CN1C(=O)OC(C)(C)C1=O
TESTED SYSTEM: Alpha-2A adrenergic receptor (Homo sapiens, UniProt P08913); note: assay procedure not described here
OBSERVED VALUE: > 10 µM

Hi, could you look up AC50 for each item in my list?
1. CC(=O)O[C@H]1C[C@@H]2CC[C@@H]3[C@H](CC[C@@]4(C)[C@H]3C[C@H]([N+]3(C)CCCCC3)[C@@H]4OC(C)=O)[C@@]2(C)C[C@@H]1N1CCCCC1
2. O=[N+]([O-])O[C@@H]1CO[C@H]2[C@@H]1OC[C@@H]2O [ISOSORBIDE MONONITRATE]
3. CC(C(=O)O)c1ccc(N2Cc3ccccc3C2=O)cc1 (centres undefined)

1: > 30 µM; 2: > 10 µM; 3: > 30 µM

// each compound listed below needs its AC50
1. NCC(=O)CCC(=O)O
2. COc1ccccc1N1CCN(CC(O)COc2cccc3ccccc23)CC1 (centres undefined)
3. CN(C)CCC=C1c2ccccc2C=Cc2ccccc21
4. O=C(O)C[C@H](O)C[C@H](O)/C=C/c1c(C2CC2)nc2ccccc2c1-c1ccc(F)cc1
5. CC(C)=CCC/C(C)=C/C=C/C(C)=C/C=C/C(C)=C/C=C/C=C(C)/C=C/C=C(C)/C=C/C=C(\C)CCC=C(C)C
6. CN1C(=O)C(O)N=C(c2ccccc2)c2cc(Cl)ccc21 (centres undefined)

["> 30 µM", "3.7 µM", "> 10 µM", "> 10 µM", "> 30 µM", "> 10 µM"]

I have 6 compounds here; please give me AC50 for each one.
1. O=C(OCC(O)CO)c1ccccc1Nc1ccnc2cc(Cl)ccc12 (centres undefined)
2. Cc1oc(=O)oc1CN1CCN(c2cc3c(cc2F)c(=O)c(C(=O)O)c2n3C(C)S2)CC1 (centres undefined)
3. CC(CC(c1ccccc1)c1ccccc1)NC(C)(C)C (centres undefined)
4. CC1=C(C(=O)O)N2C(=O)[C@@H](NC(=O)[C@H](N)c3ccccc3)[C@H]2SC1 [CEPHALEXIN ANHYDROUS]
5. O=C(O)CCCCCCNC1c2ccccc2CCc2ccccc21
6. C[C@]12CC[C@H]3[C@@H](CCC4=CC(=O)CC[C@@]43C)[C@@H]1CC[C@@H]2O

> 30 µM
> 30 µM
> 30 µM
> 30 µM
> 30 µM
> 10 µM
